molecular target: Bromodomain-containing protein 4 (Homo sapiens, UniProt O60885); test: Inhibition of FAM-labeled ZBA248 binding to recombinant N-terminal His6-tagged BRD4 bromodomain 2 (333 to 460 residues) (unknown origin) expressed in Escherichia coli Rosetta2 DE3 after 30 mins by fluorescence polarization assay
Listing: IC50 of selected compounds
Provide the reading as a plain figure in µM.

CCn1nc(C2CC2)cc1Nc1nc(C(=O)NC)nc2[nH]c3cc(-c4c(C)noc4C)c(OC)cc3c12; 0.007

INPUT: Suppose we examine the compound CNC(=O)c1ncc2c(n1)[nH]c1cc(-c3c(C)noc3C)c(OC)cc12 ; what IC50 value has been reported?
OUTPUT: 0.63

---

system: MOLM-13; test: Cytotoxicity against human MOLM13 cells assessed as cell growth inhibition after 4 days by WST-8 assay; format: functional, cell-based; conditions: MOLM-13, 96 h
This section presents molecules with their documented pIC50 values.
Friendly reminder that pIC50 comes from taking -log10 of the concentration in mol/L.

Example entries and their recorded answers appear below.
CCn1nc(C2CC2)cc1Nc1nc(C(=O)NCCCCc2cccc3c2CN(C2CCC(=O)NC2=O)C3=O)nc2[nH]c3cc(-c4c(C)noc4C)c(OC)cc3c12 (stereo not drawn); 7.86
CCn1nc(C2CC2)cc1Nc1nc(C(=O)NCCCCCCc2cccc3c2C(=O)N(C2CCC(=O)NC2=O)C3=O)nc2[nH]c3cc(-c4c(C)noc4C)c(OC)cc3c12 (stereo not drawn); 8.60
CCn1nc(C2CC2)cc1Nc1nc(C(=O)NCCCCCCCNc2cccc3c2C(=O)N(C2CCC(=O)NC2=O)C3=O)nc2[nH]c3cc(-c4c(C)noc4C)c(OC)cc3c12 (stereo not drawn); 8.92
CCn1nc(C2CC2)cc1Nc1nc(C(=O)NCCCNc2cccc3c2C(=O)N(C2CCC(=O)NC2=O)C3=O)nc2[nH]c3cc(-c4c(C)noc4C)c(OC)cc3c12 (stereo not drawn); 8.02
CCn1nc(C2CC2)cc1Nc1nc(C(=O)NCCCCCc2cccc3c2C(=O)N(C2CCC(=O)NC2=O)C3=O)nc2[nH]c3cc(-c4c(C)noc4C)c(OC)cc3c12 (stereo not drawn); 8.68
CCn1nc(C2CC2)cc1Nc1nc(C(=O)NCCCCCCc2cccc3c2CN(C2CCC(=O)NC2=O)C3=O)nc2[nH]c3cc(-c4c(C)noc4C)c(OC)cc3c12 (stereo not drawn); 9.00

Turning to the following molecule.
INPUT: Report pIC50 for CCn1nc(C2CC2)cc1Nc1nc(C(=O)NC)nc2[nH]c3cc(-c4c(C)noc4C)c(OC)cc3c12 please.
OUTPUT: 7.59

---

target: Bromodomain-containing protein 2 (Homo sapiens); assay: Inhibition of FAM-labeled ZBA248 binding to recombinant N-terminal His6-tagged BRD2 bromodomain 1 (72 to 205 residues) (unknown origin) expressed in Escherichia coli Rosetta2 DE3 after 30 mins by fluorescence polarization assay
Sequence (P25440 whole entry, the tested form may be a part): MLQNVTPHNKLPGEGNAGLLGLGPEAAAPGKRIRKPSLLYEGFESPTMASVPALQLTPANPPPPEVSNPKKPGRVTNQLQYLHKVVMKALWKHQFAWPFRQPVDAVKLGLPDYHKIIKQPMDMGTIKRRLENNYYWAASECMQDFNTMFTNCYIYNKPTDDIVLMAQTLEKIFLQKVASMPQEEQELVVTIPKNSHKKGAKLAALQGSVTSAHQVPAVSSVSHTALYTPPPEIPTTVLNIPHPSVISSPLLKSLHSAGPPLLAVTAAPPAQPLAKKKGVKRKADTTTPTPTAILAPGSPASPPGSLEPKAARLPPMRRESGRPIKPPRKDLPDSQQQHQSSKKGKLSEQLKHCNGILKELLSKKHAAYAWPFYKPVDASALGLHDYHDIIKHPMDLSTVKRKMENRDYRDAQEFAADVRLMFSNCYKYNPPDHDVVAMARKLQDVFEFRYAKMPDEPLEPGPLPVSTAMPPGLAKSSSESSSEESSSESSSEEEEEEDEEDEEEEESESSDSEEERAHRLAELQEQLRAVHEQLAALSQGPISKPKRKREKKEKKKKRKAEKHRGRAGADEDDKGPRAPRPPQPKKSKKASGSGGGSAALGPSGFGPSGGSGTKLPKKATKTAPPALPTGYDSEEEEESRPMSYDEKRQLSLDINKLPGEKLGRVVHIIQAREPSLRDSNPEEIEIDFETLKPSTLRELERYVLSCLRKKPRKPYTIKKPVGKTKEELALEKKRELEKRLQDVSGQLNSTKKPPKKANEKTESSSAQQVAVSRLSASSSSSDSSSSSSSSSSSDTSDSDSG
# maps each entry to its IC50
Give just the numeric value; nM need not be written.

CNC(=O)c1ncc2c(n1)[nH]c1cc(-c3c(C)noc3C)c(OC)cc12; 218

# next compound below
INPUT: Entry CCn1nc(C2CC2)cc1Nc1nc(C(=O)NC)nc2[nH]c3cc(-c4c(C)noc4C)c(OC)cc3c12 has what IC50?
OUTPUT: 3.1

---

system: RS4-11; experiment: Cytotoxicity against human RS4:11 cells assessed as cell growth inhibition after 4 days by WST-8 assay; assay type: functional, cell-based; settings: RS4-11, 96 h
The entries below are paired with their reported pIC50.
Reminder that pIC50 means the negative base-10 logarithm of the concentration expressed in mol/L.

Please review the following examples before continuing.
CCn1nc(C2CC2)cc1Nc1nc(C(=O)NC)nc2[nH]c3cc(-c4c(C)noc4C)c(OC)cc3c12; 7.62
CCn1nc(C2CC2)cc1Nc1nc(C(=O)NCCCCNc2cccc3c2C(=O)N(C2CCC(=O)NC2=O)C3=O)nc2[nH]c3cc(-c4c(C)noc4C)c(OC)cc3c12 (configuration not stated); 9.35
CCn1nc(C2CC2)cc1Nc1nc(C(=O)NCCCCCCc2cccc3c2C(=O)N(C2CCC(=O)NC2=O)C3=O)nc2[nH]c3cc(-c4c(C)noc4C)c(OC)cc3c12 (configuration not stated); 9.77
CCn1nc(C2CC2)cc1Nc1nc(C(=O)NCCCCCCCOc2cccc3c2C(=O)N(C2CCC(=O)NC2=O)C3=O)nc2[nH]c3cc(-c4c(C)noc4C)c(OC)cc3c12 (configuration not stated); 9.32
CCn1nc(C2CC2)cc1Nc1nc(C(=O)NCCCNc2cccc3c2C(=O)N(C2CCC(=O)NC2=O)C3=O)nc2[nH]c3cc(-c4c(C)noc4C)c(OC)cc3c12 (configuration not stated); 8.62
CCn1nc(C2CC2)cc1Nc1nc(C(=O)NCCCCCc2cccc3c2C(=O)N(C2CCC(=O)NC2=O)C3=O)nc2[nH]c3cc(-c4c(C)noc4C)c(OC)cc3c12 (configuration not stated); 9.85

INPUT: What pIC50 appears in the records for this compound with RS4-11? CCn1nc(C2CC2)cc1Nc1nc(C(=O)NCCCCNC(=O)COc2cccc3c2C(=O)N(C2CCC(=O)NC2=O)C3=O)nc2[nH]c3cc(-c4c(C)noc4C)c(OC)cc3c12 (configuration not stated)
OUTPUT: 8.37

INPUT: Hello, I am looking for reported pIC50 with RS4-11 for CCn1nc(C2CC2)cc1Nc1nc(C(=O)NCCOCCCc2cccc3c2C(=O)N(C2CCC(=O)NC2=O)C3=O)nc2[nH]c3cc(-c4c(C)noc4C)c(OC)cc3c12 (configuration not stated) . Could you help?
OUTPUT: 9.38

INPUT: Give pIC50 (RS4-11) of the following compound: CCn1nc(C2CC2)cc1Nc1nc(C(=O)NCCCCCCc2cccc3c2CN(C2CCC(=O)NC2=O)C3=O)nc2[nH]c3cc(-c4c(C)noc4C)c(OC)cc3c12 (configuration not stated)
OUTPUT: 10.43

INPUT: Give recorded pIC50 with RS4-11 for the following compound: CCn1nc(C2CC2)cc1Nc1nc(C(=O)NCCCCCCNc2cccc3c2C(=O)N(C2CCC(=O)NC2=O)C3=O)nc2[nH]c3cc(-c4c(C)noc4C)c(OC)cc3c12 (configuration not stated)
OUTPUT: 9.20

INPUT: Requested read-out pIC50, target or system RS4-11, entry CCn1nc(C2CC2)cc1Nc1nc(C(=O)NCCCc2cccc3c2CN(C2CCC(=O)NC2=O)C3=O)nc2[nH]c3cc(-c4c(C)noc4C)c(OC)cc3c12 (configuration not stated)
OUTPUT: 8.02
